meta.source: BigSolDB 2.1

Settings: in water, 288.15 K
RESULT_TYPE: solubility (mole fraction)
Give the figure only, with no unit attached.

I have this molecule here, NC(=O)N1c2ccccc2CC(=O)c2ccccc21 , and I need its recorded solubility (mole fraction).
5.42e-06

---

Details: in DMSO, 288.15 K
RESULT_TYPE: solubility (mole fraction)
Give the figure only, with no unit attached.

I have this molecule here, NC(=O)N1c2ccccc2CC(=O)c2ccccc21 , and I need its recorded solubility (mole fraction).
0.0312

---

Details: in water, 293.15 K
RESULT_TYPE: solubility (mole fraction)
Give the figure only, with no unit attached.

I have this compound here, NC(=O)N1c2ccccc2CC(=O)c2ccccc21 , and I need its recorded solubility (mole fraction).
5.85e-06
